Test: yeast display, Sf9 membrane polyspecificity reagent, FACS + sequencing; frameworks hold sequencing errors
assay.endpoint: polyreactivity (PSR sort gate)

{"sequence.chain": "QVHLVESGGCLVQAGGSLRLSCSASGSIFGWYAMGWYRQAPGKEREFVAAISYSGGSTYYADSVKGRFTNSRDIAKITVYLQINSLKPEDTAVYYCNARPYWYFPYRVPEGYDYWGQGTQVTVSS", "measured.value": "high polyreactivity"}
{"sequence.chain": "QVQLVESGGGLVQAGGILRLSCAASGSNFRRNVMWYRQEPGKERELVAGISWRGTSTYYADSVNGRFTISRDNAKNTVYLQMNRLKPEDSAVYYCAALPFVYHRVNEFDYWGQGTQVTVSS", "measured.value": "high polyreactivity"}
{"sequence.chain": "QVQLVESGGGLVQAGGSLRLSCAASGITFRNYAMGWYRPAPGKERELVADITTGGSTYADSVKGRFTISRDNAKNTVYLQMISLKPEDTAVYYCAARYFSYYILRRIYPVREDYWGQGTQVTVSS", "measured.value": "low polyreactivity"}
{"sequence.chain": "QVQLVESGGGLVQAGGSLRLSCAASGITFLFYVMGRYRQERGKERELVSTINSDDTTYYADSVKGRFTISRDNAKNTVYLQMNCLKPEDTAVYYCAADTWLWYGFDHWGQGTQVTVSS", "measured.value": "high polyreactivity"}
{"sequence.chain": "QVQLVESGGGLVQAGGSLRLSCAASGRLFDSNARGWYSQAPGKERELVAAISSGASTYYADSVKGRFTISRDNAKNTVYLQMNSLKPEDTAVYYCAVRLRYAYRARGNYWGQGTQVTVSS", "measured.value": "low polyreactivity"}
{"sequence.chain": "QVQLVESGGGLVQAGCSLRLSCAASGSIYPYAMGWYRQAPGKERELVDAISFSDDRTYYADSVKGRFTISRDIAKNNVYVQMNSLKPEDTAFYYCDAYYFSADEYEYVYWGQGTQVTLSS", "measured.value": "high polyreactivity"}
{"sequence.chain": "QVQLVESGGGLVQAGGSLRLSCAASGFIIDSNAMGWYRQAPGKERELVAAIDYSGGSTYYADSVKGRFTISRDNAKNTVYLQMNSLKPEDTAFYYCAAEYHGYRYNYYPYSHYFIYEYWGQGTQVTVSS", "measured.value": "high polyreactivity"}
{"sequence.chain": "QVQLVESGGGLVQAGGSLRLSCAASGFTFRRYAMGWYRQAPGKERELVAAISASGGNTYYADSVKGRFTISRDNAKNTVYLQMNSLKPEDTAVYYCATDWTVRYDYWGQGTQVTVSS", "measured.value": "high polyreactivity"}
{"sequence.chain": "QVQLVESGGGLVQAGGSLRLSCAASGFTFWTYAMGWYRPAPGKERELVAAIDSGVSTYYADSVKGRFTISRDNAKNTVYLQMNSLKPEDTAVYYCNAGPSVTSGYDYDYWGQGTQVTVSS", "measured.value": "low polyreactivity"}
{"sequence.chain": "QVQLVESGGGLVQAGGSLRLSCAASGRTFYTYAMGWYRQAPGNERELVATISSGGGRTYYADSVKGRFTISPDNAKKTVYLQRNSLNPEDTAVYYCAADKWENRYHAVSDTRPRDYWGQGTQVTVSS", "measured.value": "low polyreactivity"}
{"sequence.chain": "QVQLVESGGGLVQAGGSLRLSCAASGSIFDTYAMGWYRQAPGKERELVAAITWGGGRTYYADSVKGRFTISRDNAKNTVYLQMNSLKPEDTAVYYCAARWRLRGGNQRYGYWGQGTQVTVSS", "measured.value": "high polyreactivity"}

This collection of values is drawn from the nanobody polyreactivity screen of Harvey et al. (2022).
